Cited source: ChEMBL document CHEMBL1131961

Target: Protein kinase C delta type (Homo sapiens)
Sequence (Q05655 whole entry): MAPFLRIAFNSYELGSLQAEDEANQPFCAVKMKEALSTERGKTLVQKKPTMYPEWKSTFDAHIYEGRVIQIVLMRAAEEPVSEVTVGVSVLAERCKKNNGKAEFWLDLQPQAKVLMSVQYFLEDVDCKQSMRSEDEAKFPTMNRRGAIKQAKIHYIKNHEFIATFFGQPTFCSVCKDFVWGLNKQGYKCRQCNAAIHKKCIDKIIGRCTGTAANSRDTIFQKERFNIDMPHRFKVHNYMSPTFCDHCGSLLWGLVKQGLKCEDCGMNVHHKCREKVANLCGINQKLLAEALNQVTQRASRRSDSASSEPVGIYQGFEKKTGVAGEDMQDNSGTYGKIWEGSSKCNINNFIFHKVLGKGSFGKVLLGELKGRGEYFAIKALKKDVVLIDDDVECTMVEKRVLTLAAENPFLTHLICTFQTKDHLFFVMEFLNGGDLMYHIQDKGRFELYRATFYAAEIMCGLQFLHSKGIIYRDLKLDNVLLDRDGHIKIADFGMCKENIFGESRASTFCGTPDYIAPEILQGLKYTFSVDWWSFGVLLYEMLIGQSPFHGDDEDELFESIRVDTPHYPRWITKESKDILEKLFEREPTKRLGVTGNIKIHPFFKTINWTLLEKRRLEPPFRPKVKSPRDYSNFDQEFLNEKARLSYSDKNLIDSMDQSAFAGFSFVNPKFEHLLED
Assay: Displacement of [3H]-PDBu from human recombinant Protein kinase C delta
Assay metric: Ki (nM)

• CCCCCCCCCCc1ccc2c(c1)N(C)[C@@H](C(C)C)C(=O)N[C@H](CO)C2 = 1.8
